Catalogue of log10 of IC50 readings, one per entry.
Target: Cysteinyl leukotriene receptor 1 (Homo sapiens)
Sequence (Q9Y271 whole entry): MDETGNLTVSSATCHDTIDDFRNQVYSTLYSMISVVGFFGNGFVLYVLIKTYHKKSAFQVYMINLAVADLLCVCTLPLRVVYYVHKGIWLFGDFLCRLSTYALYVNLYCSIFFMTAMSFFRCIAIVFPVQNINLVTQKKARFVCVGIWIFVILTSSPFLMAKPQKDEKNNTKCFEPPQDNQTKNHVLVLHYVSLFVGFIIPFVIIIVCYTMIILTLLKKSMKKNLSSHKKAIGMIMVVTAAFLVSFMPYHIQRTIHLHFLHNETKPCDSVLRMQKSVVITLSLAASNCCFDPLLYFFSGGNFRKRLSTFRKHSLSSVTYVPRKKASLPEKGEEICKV
Test: Antagonist activity at human CysLT1 receptor expressed in CHO cells assessed as inhibition of LTD4-inudced intracellular calcium influx preincubated for 30 mins before LTD4 addition by Fura2-AM assay
reported endpoint: log10 of IC50 (log10 of the value in nM)

compound: O=C(O)CCCOc1nc2cccc(/C=C/c3ccc(OCCCCOc4ccccc4)cc3)c2nc1C(=O)O
log10 of IC50: 2.69
//
compound: O=C(O)CCCN1CC(C(=O)O)Oc2c(OCc3ccc(OCCCCc4ccccc4)cc3)cccc21 (centres undefined)
log10 of IC50: 1.76
//
compound: CS(=O)(=O)NC(=O)C1CN(CCCC(=O)O)c2cccc(NC(=O)c3ccc(OCCCCc4ccccc4)cc3)c2O1 (centres undefined)
log10 of IC50: 1.34
//
compound: O=C(O)CCCN1CC(c2nnn[nH]2)Oc2c(/C=C/c3ccc(OCCCCc4ccccc4)cc3)cccc21 (centres undefined)
log10 of IC50: -0.23
//
compound: O=C(O)CCCn1cc(C(=O)O)c(=O)c2c(/C=C/c3ccc(OCCCCOc4ccccc4)cc3)cccc21
log10 of IC50: 2.40
//
compound: O=C(O)CCCN1CCOc2c(NC(=O)c3ccc(OCCCCc4ccccc4)cc3)cccc21
log10 of IC50: 3.28
//
compound: O=C(O)CCCN1CC(C(=O)O)Oc2c(CCc3ccc(OCCCCc4ccccc4)cc3)cccc21 (centres undefined)
log10 of IC50: 1.91
//
compound: O=C(O)CCCN1CC(c2nnn[nH]2)Oc2c(NC(=O)c3ccc(OCCCCc4ccccc4)cc3)cccc21 (centres undefined)
log10 of IC50: -0.10
//
compound: O=C(O)CCCN1CC(C(=O)O)Oc2c(/C=C/c3ccc(OCCCCc4ccccc4)cc3)cccc21 (centres undefined)
log10 of IC50: 1.85

* * *

Catalogue of Papp readings, one per entry.
Assay: Apparent permeability of the compound at pH 7.4 by PAMPA
Assay type: physicochemical

compound: O=C(O)CCCN1CC(C(=O)O)Oc2c(/C=C/c3ccc(OCCCCc4ccccc4)cc3)cccc21 (centres undefined)
relational operator: =
Papp, ×10⁻⁶ cm/s: 0.1
--
compound: O=C(O)CCCn1cc(C(=O)O)c(=O)c2c(/C=C/c3ccc(OCCCCOc4ccccc4)cc3)cccc21
relational operator: =
Papp, ×10⁻⁶ cm/s: 12
--
compound: O=C(O)CCCOc1nc2cccc(/C=C/c3ccc(OCCCCOc4ccccc4)cc3)c2nc1C(=O)O
relational operator: <
Papp, ×10⁻⁶ cm/s: 0.1
--
compound: O=C(O)CCCN1CC(C(=O)O)Oc2c(/C=C/c3ccc(OCCCCOc4ccccc4)cc3)cccc21 (centres undefined)
relational operator: <
Papp, ×10⁻⁶ cm/s: 0.1

* * *

Experiment: Oral bioavailability in rat at 30 mg/kg
Format: ADME, organism-based
Conditions: in vivo
reported endpoint: bioavailability (%)

compound: O=C(O)CCCN1CC(C(=O)O)Oc2c(/C=C/c3ccc(OCCCCc4ccccc4)cc3)cccc21 (centres undefined)
test result: 29

compound: O=C(O)CCCN1CC(c2nnn[nH]2)Oc2c(NC(=O)c3ccc(OCCCCc4ccccc4)cc3)cccc21 (centres undefined)
test result: 1

compound: O=C(O)CCCN1CC(C(=O)O)Oc2c(OCc3ccc(OCCCCc4ccccc4)cc3)cccc21 (centres undefined)
test result: 20

compound: O=C(O)CCCN1CC(C(=O)O)Oc2c(CCc3ccc(OCCCCc4ccccc4)cc3)cccc21 (centres undefined)
test result: 79

* * *

Catalogue of Papp at 2 h, 1 µM readings, one per entry.
Assay: Apparent permeability across apical to basolateral or basolateral to apical side in human Caco2 cells at 1 uM after 2 hrs by LC/MS/MS analysis
Assay type: ADME, cell-based
Details: Caco-2

compound: O=C(O)CCCOc1nc2cccc(/C=C/c3ccc(OCCCCOc4ccccc4)cc3)c2nc1C(=O)O
unit descriptor: ×10⁻⁶ cm/s
Papp at 2 h, 1 µM: 11

compound: O=C(O)CCCN1CCOc2c(NC(=O)c3ccc(OCCCCc4ccccc4)cc3)cccc21
unit descriptor: ×10⁻⁶ cm/s
Papp at 2 h, 1 µM: 0.17

compound: O=C(O)CCCn1cc(C(=O)O)c(=O)c2c(/C=C/c3ccc(OCCCCOc4ccccc4)cc3)cccc21
unit descriptor: ×10⁻⁶ cm/s
Papp at 2 h, 1 µM: 13

compound: O=C(O)CCCN1CC(C(=O)NS(=O)(=O)c2ccccc2)Oc2c(NC(=O)c3ccc(OCCCCc4ccccc4)cc3)cccc21 (centres undefined)
unit descriptor: ×10⁻⁶ cm/s
Papp at 2 h, 1 µM: 0.06

compound: O=C(O)CCCN1CC(CO)Oc2c(NC(=O)c3ccc(OCCCCc4ccccc4)cc3)cccc21 (centres undefined)
unit descriptor: ×10⁻⁶ cm/s
Papp at 2 h, 1 µM: 0.17

compound: CS(=O)(=O)NC(=O)C1CN(CCCC(=O)O)c2cccc(NC(=O)c3ccc(OCCCCc4ccccc4)cc3)c2O1 (centres undefined)
unit descriptor: ×10⁻⁶ cm/s
Papp at 2 h, 1 µM: 0.06

compound: O=C(O)CCCN1CC(c2nnn[nH]2)Oc2c(/C=C/c3ccc(OCCCCc4ccccc4)cc3)cccc21 (centres undefined)
unit descriptor: ×10⁻⁶ cm/s
Papp at 2 h, 1 µM: 0.16

compound: O=C(O)CCCN1CC(C(=O)O)Oc2c(NC(=O)c3ccc(OCCCCc4ccccc4)cc3)cccc21 (centres undefined)
unit descriptor: ×10⁻⁶ cm/s
Papp at 2 h, 1 µM: 0.18

compound: O=C(O)CCCN1CC(C(=O)O)Oc2c(CCc3ccc(OCCCCc4ccccc4)cc3)cccc21 (centres undefined)
unit descriptor: ×10⁻⁶ cm/s
Papp at 2 h, 1 µM: 2.8

compound: O=C(O)CCCN1CC(C(=O)O)Oc2c(OCc3ccc(OCCCCc4ccccc4)cc3)cccc21 (centres undefined)
unit descriptor: ×10⁻⁶ cm/s
Papp at 2 h, 1 µM: 0.74

compound: O=C(O)CCCN1CC(c2nnn[nH]2)Oc2c(CCc3ccc(OCCCCc4ccccc4)cc3)cccc21 (centres undefined)
unit descriptor: ×10⁻⁶ cm/s
Papp at 2 h, 1 µM: 0.52

compound: O=C(O)CCCN1CC(c2nnn[nH]2)Oc2c(NC(=O)c3ccc(OCCCCc4ccccc4)cc3)cccc21 (centres undefined)
unit descriptor: ×10⁻⁶ cm/s
Papp at 2 h, 1 µM: 0.11

compound: O=C(O)CCCN1CC(C(=O)O)Oc2c(/C=C/c3ccc(OCCCCOc4ccccc4)cc3)cccc21 (centres undefined)
unit descriptor: ×10⁻⁶ cm/s
Papp at 2 h, 1 µM: 7.8

compound: O=C(O)CCCN1CC(C(=O)O)Oc2c(/C=C/c3ccc(OCCCCc4ccccc4)cc3)cccc21 (centres undefined)
unit descriptor: ×10⁻⁶ cm/s
Papp at 2 h, 1 µM: 1.3

* * *

Molecular target: Cysteinyl leukotriene receptor 2 (Homo sapiens)
Sequence (Q9NS75 whole entry): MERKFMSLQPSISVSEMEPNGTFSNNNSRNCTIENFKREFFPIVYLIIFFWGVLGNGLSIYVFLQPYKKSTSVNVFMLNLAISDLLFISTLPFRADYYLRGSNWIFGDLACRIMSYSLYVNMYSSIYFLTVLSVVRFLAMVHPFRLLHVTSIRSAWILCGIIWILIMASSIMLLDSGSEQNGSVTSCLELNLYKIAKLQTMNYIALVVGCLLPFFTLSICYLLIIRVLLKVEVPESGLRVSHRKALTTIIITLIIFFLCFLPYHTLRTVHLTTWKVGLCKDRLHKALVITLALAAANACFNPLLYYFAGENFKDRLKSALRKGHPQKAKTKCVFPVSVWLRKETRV
Experiment: Antagonist activity at human CysLT2 receptor expressed in HEK293 cells assessed as inhibition of LTD4-inudced intracellular calcium influx preincubated for 30 mins before LTD4 addition by Fura2-AM assay
pIC50: −log10 of the molar value.
Catalogue of pIC50 readings, one per entry.

molecule: O=C(O)CCCN1CC(C(=O)O)Oc2c(/C=C/c3ccc(OCCCCOc4ccccc4)cc3)cccc21 (configuration not stated)
pIC50: 9.51

molecule: O=C(O)CCCN1CC(C(=O)NS(=O)(=O)c2ccccc2)Oc2c(NC(=O)c3ccc(OCCCCc4ccccc4)cc3)cccc21 (configuration not stated)
pIC50: 8.24

molecule: O=C(O)CCCN1CC(CO)Oc2c(NC(=O)c3ccc(OCCCCc4ccccc4)cc3)cccc21 (configuration not stated)
pIC50: 6.39

molecule: O=C(O)CCCN1CC(c2nnn[nH]2)Oc2c(NC(=O)c3ccc(OCCCCc4ccccc4)cc3)cccc21 (configuration not stated)
pIC50: 9.31

molecule: O=C(O)CCCN1CC(C(=O)O)Oc2c(/C=C/c3ccc(OCCCCc4ccccc4)cc3)cccc21 (configuration not stated)
pIC50: 8.24

molecule: O=C(O)CCCOc1nc2cccc(/C=C/c3ccc(OCCCCOc4ccccc4)cc3)c2nc1C(=O)O
pIC50: 7.12

molecule: O=C(O)CCCN1CC(c2nnn[nH]2)Oc2c(CCc3ccc(OCCCCc4ccccc4)cc3)cccc21 (configuration not stated)
pIC50: 7.82

molecule: O=C(O)CCCN1CC(c2nnn[nH]2)Oc2c(/C=C/c3ccc(OCCCCc4ccccc4)cc3)cccc21 (configuration not stated)
pIC50: 8.47

molecule: CS(=O)(=O)NC(=O)C1CN(CCCC(=O)O)c2cccc(NC(=O)c3ccc(OCCCCc4ccccc4)cc3)c2O1 (configuration not stated)
pIC50: 7.80

molecule: O=C(O)CCCN1CCOc2c(NC(=O)c3ccc(OCCCCc4ccccc4)cc3)cccc21
pIC50: 5.37

molecule: O=C(O)CCCn1cc(C(=O)O)c(=O)c2c(/C=C/c3ccc(OCCCCOc4ccccc4)cc3)cccc21
pIC50: 6.43

molecule: O=C(O)CCCN1CC(C(=O)O)Oc2c(CCc3ccc(OCCCCc4ccccc4)cc3)cccc21 (configuration not stated)
pIC50: 7.80
